- Test system: MDA-MB-231 breast
- assayInfo: NCI-60 one-dose screen, 48 h
- cond: 10 µM unless noted
The panel holds about 83,000 compounds, 20% with a hit somewhere; the sample as a whole holds those more often. Calls of active or inactive are those of the source. How the source made its calls: active means growth percent below 10; inactive means the rest.
Select the matching outcome among T for active, F for inactive

• CC(/C=N/NC(N)=S)Cc1ccc(C(C)C)cc1 (centres undefined) = F
• O=C1C=Cc2ccccc2/C1=C/c1nc(-c2ccccc2)oc1O = F
• O=S(=O)(O)c1cnccn1 = F
• CN1CCC(CN2c3ccccc3Sc3ccccc32)C1 (centres undefined) = F
• CCC(=O)c1cc([N+](=O)[O-])c(Br)s1 = F

Per the records of this test, what outcome belongs to `COC(=O)C(=[N+]=[N-])C(=O)c1ccc([N+](=O)[O-])o1` ? F

Another: COc1cc(NCc2ccc3nc(N)nc(N)c3c2C)cc(OC)c1OC (tested in a mixture with another compound) F

Another: CC(=O)C1Cc2ccccc2C1=O (centres undefined) F

* * *

- System: IGROV1 ovarian
- assayInfo: NCI-60 one-dose screen, 48 h
- cond: 10 µM unless noted
- Protocol: Growth inhibition of the IGROV1 human tumor cell line is measured as a screen for anti-cancer activity. Cells are grown in 96 well plates and exposed to the test compound for 48 hours. Compounds are tested at a single concentration, which is 10^-5 M for most compounds. The reported endpoint is percent growth (GI% or GIPRCNT), where numbers from 0 - 100% represent growth inhibition, and numbers from -100% - 0 represent cell death. For example, a value of 40 represents 60% growth inhibition. […]
This is part of a sample that, as a whole, favours compounds with a hit. Of some 83,000 tested, about 20% had one in any assay. Activity calls are given as the source filed them. Rule for the calls: active = growth percent below 10; inactive = the rest.
Select the matching outcome among class 1 for active, class 0 for inactive

Reference set, count: 8
* CC1(C)CCCC2=C1C(=O)N(SC(Cl)(Cl)Cl)C2=O | class 0
* N#CCc1cccc2ccccc12 | class 0
* Oc1ccc(Br)cc1Sc1cc(Br)ccc1O | class 0
* O=C(Cc1ccccc1)C(F)(F)F | class 0
* N=C(N)Sc1cccc[n+]1[O-] | class 0
* Oc1ccccc1N=Cc1ccccc1 | class 0
* CCCc1cc(=O)oc2c3c(c4c(c12)OC(C)(C)CC4)OC(C)[C@H](C)[C@@H]3O (some centres not stated) | class 0
* COc1ccc(C(OCC2OC(n3ccc(NC(=O)c4ccccc4)nc3=O)C(O)C2O)(c2ccccc2)c2ccccc2)cc1 (configuration not stated) | class 0

Per the records of this test, what outcome belongs to `N#CC(=C1SCS1)[N+](=O)[O-]` ? class 0

* * *

- System: PC-3 prostate
- assayInfo: NCI-60 one-dose screen, 48 h (100 = growth as untreated, 0 = no growth, -100 = all killed)
- cond: 10 µM unless noted
This is part of a sample that, as a whole, favours compounds with a hit. Of some 83,000 tested, about 20% had one in any assay.
readoutType: growth (%)
// units = %; emit number, no label

For orientation, consider the following solved cases.
- O=[N+]([O-])c1ccc([I+]c2ccccc2)cc1: 62.3
- C=C(C(N)=O)C(N)C(=O)O (stereo unspecified): 103
- CC(C)(C)c1ccc(O)c(Br)c1: 101

Reported growth, molecule `Cc1ccc(NC2=CC(=O)C(=O)c3ccccc32)cc1` : ____ 28

Another: `CCOC(=O)C1=C(C(=O)c2ccccc2)C(c2cccc([N+](=O)[O-])c2)C(C(=O)c2ccccc2)=C(C(=O)OCC)N1` 86

Another: `Cc1cc(C(N)=O)cc(C)c1C(=O)OCCCl` 96.8

* * *

- Tested on: T-47D breast
- assayInfo: NCI-60 one-dose screen, 48 h (100 = growth as untreated, 0 = no growth, -100 = all killed)
- cond: 10 µM unless noted
This is part of a sample that, as a whole, favours compounds with a hit. Of some 83,000 tested, about 20% had one in any assay.
readoutType: growth (%)
// units = %; emit number, no label

For orientation, consider the following solved cases.
• CCSc1nc2ccccc2o1 = 106
• OC(c1cc2ccc(C(F)(F)F)cc2c2cc(C(F)(F)F)ccc12)C1CCCCN1 (configuration not stated) = -90.5
• CC1=CC(=O)C=CC1(C)C(Cl)(Cl)Cl (configuration not stated) = 89.8
• O=C(O)c1cccc2cccc(-c3c4ccc(=O)c(O)c-4oc4c(O)c(O)ccc34)c12 = 98.9
• CN1CSC(=S)N(Cc2ccccc2)C1 = 43.1

Reported growth, compound CCCCCCCCCCCCCCCCCC[S+](C)CC (configuration not stated) : ____ 16.6

Another: CCN(CC)CC(O)c1cc(-c2ccc(Cl)cc2)nc2cc(Cl)ccc12 (configuration not stated) 12.9

* * *

Let's look at some molecules and their measured growth.
- System: HCT-116 colon
- assayInfo: NCI-60 one-dose screen, 48 h (100 = growth as untreated, 0 = no growth, -100 = all killed)
- cond: 10 µM unless noted
About 83,000 compounds went through this panel and 20% of them were active in at least one assay; those are over-represented in the sample as a whole.
// units = %; emit number, no label

For orientation, consider the following solved cases.
- CC(C)(C)c1ccc(O)c(-c2ccccc2)c1: 102
- COc1cc([C@@H]2c3cc4c(cc3[C@H](OC3OC5COC(c6ccccc6)OC5C(O)C3O)[C@H]3COC(=O)[C@H]23)OCO4)cc(OC)c1OC (stereo partly specified): 12.3
- CC(=O)N1CC(=O)NC1=S: 102
- O=[N+]([O-])C=C(c1ccccc1)c1ccccc1: 64
- CC(C)c1ccc(C(=O)OC2CCCC2)cc1: 92.3

Now consider the entry below.
Reported growth, molecule `OCCOSCCO` : ____ 102

* * *

- System: UO-31 renal
- assayInfo: NCI-60 one-dose screen, 48 h
- cond: 10 µM unless noted
Compounds without any hit were thinned out: in the full panel of roughly 83,000, 20% have a hit. Active and inactive are the calls of the source. How the source made its calls: active means growth percent below 10; inactive means the rest.
Select the matching outcome among active, inactive

Reference set, count: 10
- CN(C)c1ccc2cc3c(cc2c1)Oc1ccccc1N3.[Cl][Zn][Cl]: active
- O=C1C=Cc2ccccc2/C1=C/c1nc(-c2ccccc2)oc1O: inactive
- O=C(OC12CC3CC(CC(C3)C1)C2)c1ccc(NCc2cc(O)ccc2O)cc1: active
- CN1CSC(=S)N(Cc2ccccc2)C1: inactive
- O=C(c1ccccc1)C(Br)[N+](=O)[O-] (stereo unspecified): inactive
- COc1cc(NCc2ccc3nc(N)nc(N)c3c2C)cc(OC)c1OC (tested in a mixture with another compound): inactive
- COC1=CC(=O)c2c(O)c3c(c(O)c2C1=O)CC(C)(O)OC3 (stereo unspecified): inactive
- CCCCN(CCCC)CCCCCCCCCCO: inactive
- CN(C)c1ccc(C(=C2C=CC(=[N+](C)C)C=C2)c2ccc(N(C)C)cc2)cc1: active
- Cc1onc(-c2ccccc2)c1C(=O)N/N=C/c1cc(Cl)cc(Cl)c1O: active

Next compound, please.
Per the records of this test, what outcome belongs to `O=C(c1ccccc1)c1cc2ccccc2oc1=O` ? inactive

* * *

- System: SNB-19 CNS
- assayInfo: NCI-60 one-dose screen, 48 h (100 = growth as untreated, 0 = no growth, -100 = all killed)
- cond: 10 µM unless noted
About 83,000 compounds went through this panel and 20% of them were active in at least one assay; those are over-represented in the sample as a whole. Active and inactive are the calls of the source. Rule for the calls: active = growth percent below 10; inactive = the rest.
readoutType: growth

For orientation, consider the following solved cases.
* O=C/C=C/c1ccc([N+](=O)[O-])cc1 | 95.3% (inactive)
* Cc1cc(=O)oc2cc(O)cc(O)c12 | 104% (inactive)
* O=C(C[P+](c1ccccc1)(c1ccccc1)c1ccccc1)c1ccccc1 | 94.4% (inactive)

Now consider the entry below.
Reported growth, compound `Cc1ccc(/C=C2\CNC/C(=C\c3ccc(C)cc3)C2=O)cc1` : ____ -52.6% (active)

* * *

- Test system: SF-295 CNS
- assayInfo: NCI-60 one-dose screen, 48 h (100 = growth as untreated, 0 = no growth, -100 = all killed)
- cond: 10 µM unless noted
About 83,000 compounds went through this panel and 20% of them were active in at least one assay; those are over-represented in the sample as a whole.
readoutType: growth (%)
// units = %; emit number, no label

Reported growth, molecule c1ccc(C2NCCNC2c2ccccc2)cc1 (stereo not given) : ____ 104

Another: `O=C(/C=C/C(Cl)(Cl)Cl)Nc1ccc(Cl)cc1` 115

Another: `Cc1ccc2c(c1)sc(-c1ccc(N(C)C)cc1)[n+]2C` -5.75

Another: CC1(C)OC2C(COC(c3ccccc3)(c3ccccc3)c3ccccc3)OC(c3c[nH]c4c(N)ncnc34)C2O1 (stereo not given) 57.9

Another: `COc1cc(NC(=O)C2=C(C)NC(C)=C(C(=O)Nc3cc(OC)c(Cl)cc3OC)C2c2cccc([N+](=O)[O-])c2)c(OC)cc1Cl` 26.3

Another: CC(/C=N/NC(N)=S)Cc1ccc(C(C)C)cc1 (stereo not given) 73.2

Another: `CC(C)c1ccc(C(=O)OC2CCCC2)cc1` 106

Another: `Cc1nnc(N/N=C/c2ccc([N+](=O)[O-])o2)[nH]c1=O` -40.4

Another: CCN(CC)CC(O)CNc1ccc(NCC2CO2)c2c1C(=O)c1ccccc1C2=O (stereo not given) 20.4

Another: `NNc1cccc([N+](=O)[O-])c1` 89.5

Another: `COC(=O)c1nc(=S)[nH]c(C(=O)OC)c1C(=O)c1ccc(Cl)c(Cl)c1` 99.8

Another: CC1(C)OCC(COC(c2ccccc2)(c2ccccc2)c2ccccc2)O1 (stereo not given) 99.2

Another: `CCNc1nnnn1CC` 103

Another: `O=C(c1ccccc1)c1cc2ccccc2oc1=O` 113

Another: `N#CC(=C1SCS1)[N+](=O)[O-]` 35.9

Another: `CCOC(=O)c1c(C)[nH]c2ccc(O)cc12` 111

Another: `Nc1nc(-c2ccccc2)nc(N)c1N=O` 108

Another: `CCc1oc2ccccc2c1C(=O)c1cc(Br)c(O)c(Br)c1` 52.8
